post-emergence action rating, Avena: recorded values
- Test system: Monocotyledonous and dicotyledonous test plants
- assay.info: Example B2: post-emergence herbicidal action, 2 kg of AS/ha
- Type: in vivo
- Design: key: 1 = complete damage, 9 = no effect
- applied.conditions: test plant Avena, 4- to 6-leaf stage, about 18 days, scale 1-9

>  <compound>
CS(=O)(=O)Cc1nc(C(F)(F)F)ccc1C(=O)C1=C(O)C2CCC(C2)C1=O (stereo not drawn)

>  <assay.target>
Monocotyledonous and dicotyledonous test plants

>  <post-emergence action rating, Avena>
3

$$$$
>  <compound>
CCN(CC)C(=O)OC1=C(C(=O)c2ccc(C(F)(F)F)nc2C)C(=O)C2CCC1C2 (stereo not drawn)

>  <assay.target>
Monocotyledonous and dicotyledonous test plants

>  <post-emergence action rating, Avena>
1

$$$$
>  <compound>
Cc1nc(C(F)(F)F)ccc1C(=O)C1=C(O)C(C)(C)ON(C)C1=O

>  <assay.target>
Monocotyledonous and dicotyledonous test plants

>  <post-emergence action rating, Avena>
1

$$$$
>  <compound>
COCc1nc(C(F)(F)F)ccc1C(=O)C1=C(O)C(C)(C)ON(C)C1=O

>  <assay.target>
Monocotyledonous and dicotyledonous test plants

>  <post-emergence action rating, Avena>
2

$$$$
>  <compound>
Cc1nc(C(F)(F)Cl)ccc1C(=O)C1=C(O)C2CCC(C2)C1=O (stereo not drawn)

>  <assay.target>
Monocotyledonous and dicotyledonous test plants

>  <post-emergence action rating, Avena>
2

$$$$
>  <compound>
O=C(C1=C(O)C2CCC(C2)C1=O)c1ccc(C(F)(F)F)nc1C1CC1 (stereo not drawn)

>  <assay.target>
Monocotyledonous and dicotyledonous test plants

>  <post-emergence action rating, Avena>
2

$$$$
>  <compound>
CCc1nc(C(F)(F)F)ccc1C(=O)C1=C(O)C(C)(C)ON(C)C1=O

>  <assay.target>
Monocotyledonous and dicotyledonous test plants

>  <post-emergence action rating, Avena>
3

$$$$
>  <compound>
Cc1nc(C(F)(F)F)ccc1C(=O)C1=C(Cl)C2CCC(C2)C1=O (stereo not drawn)

>  <assay.target>
Monocotyledonous and dicotyledonous test plants

>  <post-emergence action rating, Avena>
2

$$$$
>  <compound>
Cc1nc(C(F)(F)C(F)(F)C(F)(F)C(F)(F)F)ccc1C(=O)C1=C(O)C2CCC(C2)C1=O (stereo not drawn)

>  <assay.target>
Monocotyledonous and dicotyledonous test plants

>  <post-emergence action rating, Avena>
2

$$$$
>  <compound>
Cc1nc(C(F)(F)F)ccc1C(=O)C1=C([O-])C2CCC(C2)C1=O.[K+] (stereo not drawn)

>  <assay.target>
Monocotyledonous and dicotyledonous test plants

>  <post-emergence action rating, Avena>
1

$$$$
>  <compound>
CC(C)c1nc(C(F)(F)F)ccc1C(=O)C1=C(O)C2CCC(C2)C1=O (stereo not drawn)

>  <assay.target>
Monocotyledonous and dicotyledonous test plants

>  <post-emergence action rating, Avena>
2

$$$$
>  <compound>
CCC(=O)NC1CC(=O)C(C(=O)c2ccc(C(F)(F)F)nc2C)=C(O)C1 (stereo not drawn)

>  <assay.target>
Monocotyledonous and dicotyledonous test plants

>  <post-emergence action rating, Avena>
2

$$$$
>  <compound>
Cc1cc(C(=O)C2=C(O)C3CCC(C3)C2=O)c(C)nc1C(F)(F)F (stereo not drawn)

>  <assay.target>
Monocotyledonous and dicotyledonous test plants

>  <post-emergence action rating, Avena>
2

$$$$
>  <compound>
C#CCOc1nc(C(F)(F)F)ccc1C(=O)C1=C(O)C2CCC(C2)C1=O (stereo not drawn)

>  <assay.target>
Monocotyledonous and dicotyledonous test plants

>  <post-emergence action rating, Avena>
2

$$$$
>  <compound>
Cc1nc(C(F)(F)Cl)ccc1C(=O)C1=C(O)C(C)(C)ON(C)C1=O

>  <assay.target>
Monocotyledonous and dicotyledonous test plants

>  <post-emergence action rating, Avena>
2

$$$$
>  <compound>
Cc1nc(C(F)(F)F)ccc1C(=O)C1=C(OC(=O)C2CC2)C2CCC(C2)C1=O (stereo not drawn)

>  <assay.target>
Monocotyledonous and dicotyledonous test plants

>  <post-emergence action rating, Avena>
2

$$$$
>  <compound>
Cc1c(C(=O)C2=C(O)C3CCC(C3)C2=O)ccc(C(F)(F)F)[n+]1[O-] (stereo not drawn)

>  <assay.target>
Monocotyledonous and dicotyledonous test plants

>  <post-emergence action rating, Avena>
2

$$$$
>  <compound>
COCc1nc(C(F)(F)F)ccc1C(=O)C1=C(O)C2CCC(C2)C1=O (stereo not drawn)

>  <assay.target>
Monocotyledonous and dicotyledonous test plants

>  <post-emergence action rating, Avena>
2

$$$$
>  <compound>
CCC1=CC(C)(C)C(O)=C(C(=O)c2ccc(C(F)(F)F)nc2C)C1=O

>  <assay.target>
Monocotyledonous and dicotyledonous test plants

>  <post-emergence action rating, Avena>
3

$$$$
>  <compound>
Cc1nc(C(F)(F)F)ccc1C(=O)C1=C(OC(=O)C(C)(C)C)C2CCC(C2)C1=O (stereo not drawn)

>  <assay.target>
Monocotyledonous and dicotyledonous test plants

>  <post-emergence action rating, Avena>
2

$$$$
>  <compound>
CCCc1nc(C(F)(F)F)ccc1C(=O)C1=C(O)C2CCC(C2)C1=O (stereo not drawn)

>  <assay.target>
Monocotyledonous and dicotyledonous test plants

>  <post-emergence action rating, Avena>
3

$$$$
>  <compound>
CCOC(=O)OC1=C(C(=O)c2ccc(C(F)(F)F)nc2C)C(=O)C2CCC1C2 (stereo not drawn)

>  <assay.target>
Monocotyledonous and dicotyledonous test plants

>  <post-emergence action rating, Avena>
2

$$$$
>  <compound>
CC1=CC(C)(C)C(O)=C(C(=O)c2ccc(C(F)(F)F)nc2C)C1=O

>  <assay.target>
Monocotyledonous and dicotyledonous test plants

>  <post-emergence action rating, Avena>
2

$$$$
>  <compound>
COc1nc(C(F)(F)F)ccc1C(=O)C1=C(O)C2CCC(C2)C1=O (stereo not drawn)

>  <assay.target>
Monocotyledonous and dicotyledonous test plants

>  <post-emergence action rating, Avena>
2

$$$$
>  <compound>
O=C(C1=C(O)C2CCC(C2)C1=O)c1ccc(C(F)(F)F)nc1 (stereo not drawn)

>  <assay.target>
Monocotyledonous and dicotyledonous test plants

>  <post-emergence action rating, Avena>
3

$$$$
>  <compound>
CC(=O)OC1=C(C(=O)c2ccc(C(F)(F)F)nc2C)C(=O)C2CCC1C2 (stereo not drawn)

>  <assay.target>
Monocotyledonous and dicotyledonous test plants

>  <post-emergence action rating, Avena>
2

$$$$
>  <compound>
C=CC(=O)OC1=C(C(=O)c2ccc(C(F)(F)F)nc2C)C(=O)C2CCC1C2 (stereo not drawn)

>  <assay.target>
Monocotyledonous and dicotyledonous test plants

>  <post-emergence action rating, Avena>
2

$$$$

* * *

- Test system: Monocotyledonous and dicotyledonous test plants
- assay.info: Example B1: pre-emergence herbicidal action, 2 kg of AS/ha
- Assay type: in vivo
- applied.conditions: test plant Stellaria, 3 weeks, scale 1-9
Recorded pre-emergence action rating, Stellaria, one value per entry.

>  <compound>
O=C(C1=C(O)C2CCC(C2)C1=O)c1ccc(C(F)(F)F)nc1 (centres unmarked)

>  <pre-emergence action rating, Stellaria>
2

$$$$
>  <compound>
Cc1nc(C(F)(F)F)ccc1C(=O)C1=C(O)C2CCC(C2)C1=O (centres unmarked)

>  <pre-emergence action rating, Stellaria>
2

$$$$
>  <compound>
O=C(C1=C(O)C2CCC(C2)C1=O)c1ccc(C(F)(F)F)nc1C1CC1 (centres unmarked)

>  <pre-emergence action rating, Stellaria>
4

$$$$
>  <compound>
CCC(=O)OC1=C(C(=O)c2ccc(C(F)(F)F)nc2C)C(=O)C2CCC1C2 (centres unmarked)

>  <pre-emergence action rating, Stellaria>
2

$$$$
>  <compound>
CC(C)c1nc(C(F)(F)F)ccc1C(=O)C1=C(O)C2CCC(C2)C1=O (centres unmarked)

>  <pre-emergence action rating, Stellaria>
1

$$$$
>  <compound>
Cc1nc(C(F)(F)F)ccc1C(=O)C1=C(O)C(C)(C)ON(C)C1=O

>  <pre-emergence action rating, Stellaria>
3

$$$$
>  <compound>
C=CC(=O)OC1=C(C(=O)c2ccc(C(F)(F)F)nc2C)C(=O)C2CCC1C2 (centres unmarked)

>  <pre-emergence action rating, Stellaria>
2

$$$$
>  <compound>
Cc1nc(C(F)(F)F)ccc1C(=O)C1=C(Cl)C2CCC(C2)C1=O (centres unmarked)

>  <pre-emergence action rating, Stellaria>
1

$$$$
>  <compound>
Cc1c(C(=O)C2=C(O)C3CCC(C3)C2=O)ccc(C(F)(F)F)[n+]1[O-] (centres unmarked)

>  <pre-emergence action rating, Stellaria>
1

$$$$
>  <compound>
COc1nc(C(F)(F)F)ccc1C(=O)C1=C(O)C2CCC(C2)C1=O (centres unmarked)

>  <pre-emergence action rating, Stellaria>
2

$$$$
>  <compound>
Cc1nc(C(F)(F)F)ccc1C(=O)C1=C(Sc2ccccc2)C2CCC(C2)C1=O (centres unmarked)

>  <pre-emergence action rating, Stellaria>
1

$$$$
>  <compound>
CC(=O)OC1=C(C(=O)c2ccc(C(F)(F)F)nc2C)C(=O)C2CCC1C2 (centres unmarked)

>  <pre-emergence action rating, Stellaria>
2

$$$$
>  <compound>
Cc1nc(C(F)(F)Cl)ccc1C(=O)C1=C(O)C(C)(C)ON(C)C1=O

>  <pre-emergence action rating, Stellaria>
2

$$$$
>  <compound>
Cc1nc(C(F)(F)C(F)(F)F)ccc1C(=O)C1=C(O)C2CCC(C2)C1=O (centres unmarked)

>  <pre-emergence action rating, Stellaria>
3

$$$$
>  <compound>
Cc1nc(C(F)(F)F)ccc1C(=O)C1=C(OC(=O)C(C)(C)C)C2CCC(C2)C1=O (centres unmarked)

>  <pre-emergence action rating, Stellaria>
2

$$$$
>  <compound>
Cc1nc(C(F)(F)F)ccc1C(=O)C1=C([O-])C2CCC(C2)C1=O.[K+] (centres unmarked)

>  <pre-emergence action rating, Stellaria>
2

$$$$
>  <compound>
COCc1nc(C(F)(F)F)ccc1C(=O)C1=C(O)C(C)(C)ON(C)C1=O

>  <pre-emergence action rating, Stellaria>
2

$$$$
